B1: TPR t1 (parent)
chain: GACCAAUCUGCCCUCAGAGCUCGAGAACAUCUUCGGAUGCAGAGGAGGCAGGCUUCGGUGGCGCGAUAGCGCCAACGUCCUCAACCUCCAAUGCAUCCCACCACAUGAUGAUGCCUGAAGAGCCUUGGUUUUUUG

variants of: B1; test: polymerase ribozyme fitness, log enrichment relative to wild type (log ratio); higher = more active; in vitro selection for triplet polymerase activity
Outcome label depends on polymerase ribozyme fitness (log ratio) relative to -3: at/above gives true, below gives false.

# seq, class.name
records = [
    ("GACCAAUCUGCCCUCAGAGCUCGAGAACAUCUUCGGAUGCAGAGGAGGCAGGCUCCGGUGGCGCGAUAGCGCCAACGUCCUCAACCUCCAAUGCAUCCCACCACAUGAUGAUGCCUGAAGAGCCAUGGUUUUUUG [U55C U125A]", "true"),
    ("GACCAAUCUGCCCUCAGAGCUCGAGAACAUCUUCGGAUGCAGAGGAUGCAGACUUCGGUGGCGCGAUAGCGCCAACGUCCUCAACCUCCAAUGCAUCCCACCACAUGAUGAUGCCUGAAGAGCCUUGGUUUUUUG [G47U G52A]", "true"),
    ("GACCAAUAUGCCCUCAGAACUCGAGAACAUCUUCGGAUGCAGAGGAGGCGGGCAUCGGUGGCGCGAUAGCGCCAACGUCCUCAACCUCCAAUGCAUCCCACCCCAUGAUGAUGCCUGAACAGCCUUGGUUUUUUG [C8A G19A A50G U54A A103C G120C]", "false"),
    ("GACCAAUCUGCCCUCAGAGCUCGAGAACAUCUUCGUAUGCAGAGGAGGCAGGCUCCGGUGGCGCGAUAGCGCCAACGUCCUCAACCUCCAAUACAUCCCACCACAUGAUGAUGCCUGAAGAGCCUUGGUUUUUUG [G36U U55C G93A]", "true"),
    ("GGCCAAUGUGCCCUCAGAGCUCGAGAACAUCUUCGGAUGCAGAGGAGGCAGGCUUCGGUGGCGCGAUAGCGCCAACGUCCUCAACCUCCAAUGCAUCCCACCACAUGAUGAUGCCUGAAGUGCCUUGGGUUUUUG [A2G C8G A121U U129G]", "true"),
    ("GAUCAAUCUGCCCUCAGAGCUCGAGAACAUCUUCGGUUGCAGAGGAGGCAGGCUUCGGUGACGCGAUAGCGCCAACGUCCUCAACCUCCAAUGCAUCCCACCACAUGAUGAUGCCUAAAGAGCCUUGGUUUUUUG [C3U A37U G61A G117A]", "true"),
    ("GACCAAUCUGCCCUCAGAGCUCGAGAACAUCUUCGGAUGCAGAGGAGGCAGGCUUCGGUGGCGCGAUAGCGCCAACGUCCUAAACCUCCAAUGCAUCCCACCACAUGAUGAUGCCUUAAGAGCCUUGGUUUUUUG [C82A G117U]", "true"),
    ("GACCAAUCUGCCCUCAGAGCUCGAGAACAUCUUCGGAUGCAGAGGAGGCAGGCUUCGGUGGCGCGAUAGCGGCAACGUCCUCAACCUCCAAUGCAUCCCACCACAUGAUGAUGCCUGAAGAGCCUUGGAUUUUUG [C72G U129A]", "true"),
    ("GACCAAUCUGCCCUCAGAGCUCGAGAACAUCUUCGGAUGCAGAGGAGGUAGGCUUCGGUGGCGCGAUAGCGCCCACGUCCUCAACCUCCAAUGCAUCCCACCACAUGAUGAUGCCUGAAGAGCCUUGGUUUUUUG [C49U A74C]", "true"),
    ("GACCAAUCUGCCUUCAGGGCUCGAGAACAUCUUCGGAUGCAGAGGAGGCAGCCUUCGGUGGCGCGAUAGCGCCAACGUCCUCAACCUCCAAUGCAUCCCACCACAUGAUGAUGCCUGAAGAGCCUUGGUUUUUUG [C13U A18G G52C]", "false"),
    ("GACCAAUCUGCCCUCAGAGCUCGAGAACAUCUUCGUAUGCAGAGGAGGCAGGCUUCGGUGGCGCGAUAGCGCCAACGUCCUCAACCUCCAAUGCAUCCCACCACAUGAUGAUGCCUGAAAAGCCUAGGUUUAUUG [G36U G120A U126A U132A]", "true"),
    ("GACCAAUCUGCCCUCAGAGCUCGAGAACAUCUUCGGAUGUAGAGGAGACAGGAUUCGGUGACGCGAUAGCGCCAACGUCCUCAACCUCCAAUGCAUCCCACCACAUGAUGAUGCCUGAAGAGCCUUGGUUUAUUG [C40U G48A C53A G61A U132A]", "true"),
    ("GACCAAUCUGCCCUCAGAGCUCGAGAGCAUCUUCGGAUGCAGAGGAGGCAGGCUUCGGUGGCGCGAUAGCGCCAACGUCCUCAACCUCCAAUGCAGCCGACCACAUGAUGAUGCCUGAAGAGCCUUGGAUUUUUG [A27G U96G C99G U129A]", "false"),
    ("GACCAAUCUGUCCUCAGAGCUCGAGAACAUCUUCGGAUGCAGAGGUGGCAGGCUUCGGUGGCGCGAUAGCGCCAACGUCCUCAACUUCCAAUGCAUCCCACCACAUGAUGAUGCCUGAAGAGCCUUGGUUUUUUG [C11U A46U C86U]", "true"),
    ("GAUCAAUCUGCCCUCAGAGCUCGAGAACAUCUUCGGAUGCAGAGGAGGCAGGCUUCGGUGGCGCGAUAGCGCCAACGUCGUCAACCUCCAAUGCAUCCCACCACAUGAUGAUGCCUGAAGAGCCUUGGUUUUUUG [C3U C80G]", "false"),
    ("GACCAAUCUACCCUCAGAGCUCGAGAACAUCUUCGGAUGCAGAAGAGGCAGGCUUCGGUGGCCCGAUAGCGCCAACGUCCUCAACCUCCAAUGCAUCCCACCACAUGAUGAUGCCUGAAGAGCCUUGGUUUUUUG [G10A G44A G63C]", "true"),
    ("GACCAAUCUGCCCUCAGAGCUCGAGAACAUCUUCGGAUGCAGAGGAGGCAGGCUUCGGUGGCGCGAUAGCGCCAACGUCCUCAACCUCCAAUGCCUCCCACCACAUGAUGAUGCCUGAAGAGCCUUGCUUUUUUG [A95C G128C]", "true"),
    ("GACCAAUCUGCCCUCAGAGCUCGAGAACAUCUUCGGAUGCAGAGGAGUCAGGCUUCGGUGGCGCGAUAGCGCCAACGCCCUCAACCUCCAAUGCAUCCCACCACAUGAUGAUGCCUGAAGAGCCUUGGUUUUUUG [G48U U78C]", "true"),
    ("GACCAAUCUGCCCUCAGAGCUCGAGAACCUCUUCGGAUGCAGAGGAGGCAGGCUUGGGUGGCGCGAUAGCGCCAACGUCCUAAACCCCAAAUGCAUCCCACCACAUGGUGAUGCCUGAAGAGCAUUGGUUUUUUG [A29C C56G C82A U87C C89A A108G C124A]", "false"),
    ("GACCAAUCUGCCCUCAGAGCUCGAGAACAUCUUCGGAUGCAGAGGAGGCAGGAUUCGGUGGCGCGAUAGCGCCAACGUCCUCAACCUCCAAUGCAUCCCACCACAUGAUGAGGCCUGAAGAGCCUUGGUUUUUUG [C53A U112G]", "true"),
    ("GACCAAUCUGCCCUCAGAGCUCGAGAACAUCUUCGCAUGCAGAGGAGGCAGGCUUCGGUGGCGCGAUAGCGCCAACGUCCUCAACCUCCAAUGCAUCCCACCACAGGAUGAUGCCUGAAGAGCCUUGGUUUUUUG [G36C U106G]", "false"),
    ("GACCAAUCUGCCCUCAGAGCUCGAGAACAUCUUCGGAUGCAGAGGAGGCAGGCUUCGGUGGGGCGAUAGCGCCAACGUCCUCAACCUCCAAUGCUUCCCACCACAUGAUGAUGCCUGAAGAGCCUUGGUUUUUUG [C62G A95U]", "true"),
    ("GACCAAGCUGCCCUCAGAGCUCGAGAUCAUCUUCGGAUGCAGAGGAGACAGGCUUCGGUGGCGCGAUAGCGCCAACGUCCUCAACCUCCAAUGCAUCCCACCACAUGAUGAAGCCUGAAGAGCCUUGGUUUUUUG [U7G A27U G48A U112A]", "true"),
    ("GACCAAUCUGCCCUAAGAGCUCGAGAACAUCUUCGGAUGCAGAGGAGGCAGGCUUCGGUGGCGCGAUAGCUCCAACGUCCUCAACCUCCUAUGCAUCCCACCACACGAUGAUGCCUGUAGAGCCUUGGUUUUUUG [C15A G71U A90U U106C A118U]", "false"),
    ("GACCAAUCUGCCCUCAGAGCUCGAGAACAUCUUCGGAUUCAGAGGAGGCAGGCUUCGGUGGCGCGAUAGCGCCAAUGUGCUCAACCUCCAAUGCAUCCCACCACAUGAUGAUGCCUGAAGAGCCUUGGUUUUUUG [G39U C76U C79G]", "true"),
    ("GACCAAUCUGCCCUCAGAGCUCGAGAACAUCUUCGGAUGCUGAGGAGGCAUGCUUCGGUGGUGCGAUAGCGCCAACGUCCUCAACCUCCAAUGCAUCCCACCACAUGAUGAUGCCUGAAGAGCCUUGGUUUUUUG [A41U G51U C62U]", "false"),
    ("GACCAAUCUGCCCUCAGAGCUCGAGAACAUCUUCGGAUGCAGAGGAGGCAGGCUUCGGUGGCGCGAUAGCGCCAACGUCCUCAAGCUCCAAUGCAUCCCACCACAUGGUGAUGCCUGAAGAGCCUUGGUUUUUUG [C85G A108G]", "false"),
    ("GACCAAUCUGCCCUUAGAGCUCGAGAACAUCUUCGGAUGCAGAGGAGGCAGGCUUCGGUGGCGCGAUAGCGCCAACGUCAUCAACCUCCAAUGCAUCCCACCACAUGAUGAUGCCUGAAGAGCCUUGGUUUUUUG [C15U C80A]", "false"),
    ("GACCAAUCUGCCCUCAGAGCUCGUGAACAUCUUAGGAUGCAGAGGAGGCAGGCUUCGGAGGCUCGAUAGCGCCAACGUCAUCAACCUCCAAUGCAUCCCACCACAUGAUGAUACCUGAAGAGCCUUGGUUUUUUG [A24U C34A U59A G63U C80A G113A]", "false"),
    ("GACCAAUCUGCCCUCAGAGCUCGAGAACAUCUUCGGAUGCAGAGGAGGCAGGCUUCGGUGGCGAGAUAGCGCCAACGUCCUCAACCUCCAAUCCAUCCCACCACAUGAUGAUGCCUCAAGAGCCUUGGUUUUUUG [C64A G93C G117C]", "false"),
    ("GACCAAUCAGCCCUCUGAGCUCGAGAACAUCUUCGGAUGCAGAGGAGGCAGGCUUCGGUGGCGUGAUAGCGCUAACGUCCUCAACCUCCAAUGCAUCCCACCACAUGAUGAUGCCUGAAGAGCCUUGGUUUUUUG [U9A A16U C64U C73U]", "true"),
    ("GACCAAUCUGCCCUCAGAGCUCGAGAACAUCUUCGGAUGCAGAGGAGGCAGGCUUCGGUAGCGCGAUAGCGCCAACGUCCGCAACCUCCAAUGCAUCCCACCACAUGAAGAUGCCUGAAGAGCAUUGGUUUUUUG [G60A U81G U109A C124A]", "false"),
]

Reference source for all entries: the RNAGym collection of RNA variant scans (doi:10.1073/pnas.2313332121)
